tested on: HeLa viability, CellTiter-Glo ATP luminescence, 8-48 h; assay: cytotoxicity in HeLa cervical cancer cells – cell-based, CellTiter-Glo ATP luminescence, 8-48 h, dry powder, mechanism study for HRAS target identification, late-stage follow-up (AID 720609); conditions: measured here: AC50 at 48 h
What AC50 was measured for each of the following?
One number for each entry, in nM.

Below, 3 compounds whose answers are already recorded.
COMPOUND: C#CCCCC(=O)NCCOCCOCCOc1ccc(N(C(=O)CCl)C(C(=O)NCCc2ccccc2)c2cccs2)cc1Cl (centres undefined)
MEASURED_QUANTITY: AC50
U: nM
READING: 4790
--
COMPOUND: CC(C)(C)OC(=O)NCCOCCOCCOc1ccc(N(C(=O)CCl)C(C(=O)NCCc2ccccc2)c2cccs2)cc1Cl (centres undefined)
MEASURED_QUANTITY: AC50
U: nM
READING: 946
--
COMPOUND: COc1ccc(N(C(=O)CCl)C(C(=O)NCCc2ccccc2)c2cccs2)cc1Cl (centres undefined)
MEASURED_QUANTITY: AC50
U: nM
READING: 699

Kindly review the next compound as well.
Lookup: # query: AC50 | item `COC(=O)c1ccc([C@@H]2c3[nH]c4ccccc4c3C[C@@H](C(=O)OC)N2C(=O)CCl)cc1` | system: HeLa viability, CellTiter-Glo ATP luminescence, 8-48 h
Found: 602

Hey, just so you know, these numbers are from PubChem BioAssay AID720609.
